# assay system: P. falciparum apicoplast DNA polymerase (Pf-apPOL) (Plasmodium falciparum, UniProt Q8ILY1)
# Sequence (Q8ILY1 entry or part of it): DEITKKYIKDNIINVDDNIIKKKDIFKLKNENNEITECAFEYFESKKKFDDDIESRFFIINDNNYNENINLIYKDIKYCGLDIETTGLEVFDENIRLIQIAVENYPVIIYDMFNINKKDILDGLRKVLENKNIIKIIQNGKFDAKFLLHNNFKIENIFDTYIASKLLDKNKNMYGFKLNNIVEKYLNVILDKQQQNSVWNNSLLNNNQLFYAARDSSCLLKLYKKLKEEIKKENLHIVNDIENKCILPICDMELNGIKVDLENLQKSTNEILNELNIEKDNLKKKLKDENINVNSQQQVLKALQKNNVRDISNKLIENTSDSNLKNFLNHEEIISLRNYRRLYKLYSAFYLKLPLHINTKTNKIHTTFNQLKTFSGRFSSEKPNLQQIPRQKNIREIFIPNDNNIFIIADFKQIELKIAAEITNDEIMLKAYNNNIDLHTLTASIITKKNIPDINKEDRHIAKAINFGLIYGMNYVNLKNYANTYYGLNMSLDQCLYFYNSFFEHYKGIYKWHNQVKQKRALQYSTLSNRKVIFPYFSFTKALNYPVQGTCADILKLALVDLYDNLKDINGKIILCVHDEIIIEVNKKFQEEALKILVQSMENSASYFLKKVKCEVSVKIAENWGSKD
# assay method text: Fluorescence-based high-throughput DNA polymerase assay (molecular beacon), primary screen and dose-response
# Type: biochemical
# run parameters: DRC-2; read at 40'; concentration 40
readout type: % inhibition Apol 40' 40 (%)
Report the value in % with no unit label.

Guide cases for % inhibition Apol 40' 40, answers given:
{"molecule": "CC(=O)OCC1=C(C(=O)[O-])N2C(=O)[C@@H](NC(=O)Cc3cccs3)[C@H]2SC1.[Na+] [Molecule 73]", "u": "%", "% inhibition Apol 40' 40": 45}
{"molecule": "Cc1nc(C)c2c(n1)N(CC1CCCCC1)C(=O)CC2 [KU0218606]", "u": "%", "% inhibition Apol 40' 40": 42}
{"molecule": "O=C(c1ccccc1)N1CCc2c(nc3cc(-c4ccccc4)[nH]n3c2=O)C1 [Molecule 30]", "u": "%", "% inhibition Apol 40' 40": 62}
{"molecule": "Cn1nc(-c2nnc(-c3ccccc3F)o2)c2c1CCN(C(=O)c1ccccc1Cl)C2 [Molecule 34]", "u": "%", "% inhibition Apol 40' 40": 49}
{"molecule": "O=C1CSC2=NC3=C(CCc4ccccc43)C(c3cccs3)N12 (stereo not drawn) [Molecule 59, O=C1CSC2=NC3=C(C(N12)c1cccs1)CCc1c3cccc1]", "u": "%", "% inhibition Apol 40' 40": 45}
{"molecule": "Cc1cccc(-c2noc(C(=O)NNC(=O)C(Cl)(Cl)Cl)n2)c1 [KU0266208]", "u": "%", "% inhibition Apol 40' 40": 44}
{"molecule": "Nc1cc(Oc2ccc(O)c(N)c2)ccc1O [KU0034728]", "u": "%", "% inhibition Apol 40' 40": 74}
{"molecule": "CC(=O)Nc1cc(C(=O)c2cccs2)nn(-c2ccc(Cl)cc2)c1=O [KU0267905]", "u": "%", "% inhibition Apol 40' 40": 44}
{"molecule": "C#CC(C=CC)OC(=O)c1ccccc1C(=O)O (stereo not drawn) [Molecule 61, CC=CC(OC(=O)c1ccccc1C(=O)O)C#C]", "u": "%", "% inhibition Apol 40' 40": 59}
{"molecule": "CC(C)CC(C(=O)O)N1C(=O)C2C3C=CC(C2C1=O)C1C(=O)N(C(CC(C)C)C(=O)O)C(=O)C31 (stereo not drawn) [KU0193449]", "u": "%", "% inhibition Apol 40' 40": 33}

P. falciparum apicoplast DNA polymerase (Pf-apPOL) (Plasmodium falciparum, UniProt Q8ILY1) assay, molecule N#Cc1c(O)nc(N2CCCCC2)nc1-c1ccc2c(c1)OCO2 [KU0083146] , recorded % inhibition Apol 40' 40 = 60

P. falciparum apicoplast DNA polymerase (Pf-apPOL) (Plasmodium falciparum, UniProt Q8ILY1) assay, molecule Cn1nc(-c2nc(-c3ccccc3)no2)c2c1CCN(C(=O)Cc1cccs1)C2 [Molecule 58] , recorded % inhibition Apol 40' 40 = 51

* * *

# assay system: P. falciparum apicoplast DNA polymerase (Pf-apPOL) (Plasmodium falciparum, UniProt Q8ILY1)
# assay method text: Fluorescence-based high-throughput DNA polymerase assay (molecular beacon), primary screen and dose-response;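 on % inhibition apPOL 180': test concentration in µM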
# Type: biochemical
# run parameters: DRC-1; 180'; concentration 10
Listed here are compounds together with their documented % inhibition apPOL 180'.
Report the value in % with no unit label.

Guide cases for % inhibition apPOL 180', answers given:
{"compound": "Cc1cc(C)c(O)c(/N=C/c2cc([N+](=O)[O-])cc(Br)c2O)c1", "value reported": -3.511}
{"compound": "CC(C)(C)OC(=O)COc1ccc2cc(-c3ccccc3)c(=O)oc2c1", "value reported": 30.2199}
{"compound": "Cc1ncc(CSc2nc(C(C)(C)C)cs2)c(CO)c1O", "value reported": 0.78}

For the next question, use this compound.
The reported % inhibition apPOL 180' of the compound CSC1=C(C#N)C(=C(C#N)C#N)NC(c2ccccc2)=N1 [Molecule 2, CSc1nc([nH]c(=C(C#N)C#N)c1C#N)c1ccccc1] was 72.8695
